Target: Mitogen-activated protein kinase 9 (Homo sapiens) (UniProt P45984)
Sequence (P45984 whole entry, looked up): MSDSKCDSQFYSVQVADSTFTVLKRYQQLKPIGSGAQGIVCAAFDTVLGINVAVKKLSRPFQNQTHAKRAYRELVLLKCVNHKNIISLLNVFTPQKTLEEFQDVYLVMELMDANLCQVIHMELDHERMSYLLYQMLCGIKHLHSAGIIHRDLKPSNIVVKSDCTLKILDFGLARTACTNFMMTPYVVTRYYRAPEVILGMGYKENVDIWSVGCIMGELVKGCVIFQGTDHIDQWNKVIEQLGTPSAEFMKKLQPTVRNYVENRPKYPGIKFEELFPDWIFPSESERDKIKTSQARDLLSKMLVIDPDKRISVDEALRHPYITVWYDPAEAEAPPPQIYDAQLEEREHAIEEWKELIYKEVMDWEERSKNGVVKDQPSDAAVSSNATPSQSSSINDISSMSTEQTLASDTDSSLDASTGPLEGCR
Settings: at 10 µM
Description: Millipore: Percentage of residual kinase activity of MAPK9 at 10uM relative to control. Control inhibitor: Jnk Inhibitor II at 100.0uM. Buffer: 50 mM Tris pH 7.5, 0.1 mM EGTA, 0.1% ?-mercaptoethanol
Outcome measure: residual activity (%)
Numbers only, in %.

// worked examples, residual activity included
O=C(Nc1cccc(Nc2nccc(Nc3cccc(C(F)(F)F)c3)n2)c1)C1CC1 : 93
O=c1cc(-c2cccc3c2Sc2ccccc2S3)oc(N2CCOCC2)c1 : 100
C[C@@H](N)[C@H]1CC[C@H](C(=O)Nc2ccncc2)CC1 : 105
Cn1nc2c3c(cccc31)C(=O)c1ccccc1-2 : 83

Please report residual activity for every entry that follows.
1. COc1ccc(CNc2nc(N(CCO)CCO)nc3c2ncn3C(C)C)cc1
2. Oc1ccc(Nc2nc(-c3ccc(Cl)cc3)cs2)cc1
3. Cc1cncc2cccc(S(=O)(=O)N3CCCN(C(=O)CN)C[C@H]3C)c12
4. Nc1ccc2ncnc(NCCc3ccc(Oc4ccccc4)cc3)c2c1
5. COc1ccc(S(=O)(=O)N(CCO)c2ccccc2CN(C)C/C=C/c2ccc(Cl)cc2)cc1
6. O=[N+]([O-])c1ccc(-c2nc(-c3ccc(F)cc3)c(-c3ccncc3)[nH]2)cc1

Response line:
1: 85; 2: 113; 3: 79; 4: 105; 5: 97; 6: 59

Prompt line: Given `Cc1ccc(S(=O)(=O)/C=C/C#N)cc1` , state its recorded residual activity.
Response line: 112

###

For each entry below, report its residual activity value.
Molecular target: Insulin receptor (Homo sapiens) (UniProt P06213)
Sequence (P06213 28-758 limits assumed): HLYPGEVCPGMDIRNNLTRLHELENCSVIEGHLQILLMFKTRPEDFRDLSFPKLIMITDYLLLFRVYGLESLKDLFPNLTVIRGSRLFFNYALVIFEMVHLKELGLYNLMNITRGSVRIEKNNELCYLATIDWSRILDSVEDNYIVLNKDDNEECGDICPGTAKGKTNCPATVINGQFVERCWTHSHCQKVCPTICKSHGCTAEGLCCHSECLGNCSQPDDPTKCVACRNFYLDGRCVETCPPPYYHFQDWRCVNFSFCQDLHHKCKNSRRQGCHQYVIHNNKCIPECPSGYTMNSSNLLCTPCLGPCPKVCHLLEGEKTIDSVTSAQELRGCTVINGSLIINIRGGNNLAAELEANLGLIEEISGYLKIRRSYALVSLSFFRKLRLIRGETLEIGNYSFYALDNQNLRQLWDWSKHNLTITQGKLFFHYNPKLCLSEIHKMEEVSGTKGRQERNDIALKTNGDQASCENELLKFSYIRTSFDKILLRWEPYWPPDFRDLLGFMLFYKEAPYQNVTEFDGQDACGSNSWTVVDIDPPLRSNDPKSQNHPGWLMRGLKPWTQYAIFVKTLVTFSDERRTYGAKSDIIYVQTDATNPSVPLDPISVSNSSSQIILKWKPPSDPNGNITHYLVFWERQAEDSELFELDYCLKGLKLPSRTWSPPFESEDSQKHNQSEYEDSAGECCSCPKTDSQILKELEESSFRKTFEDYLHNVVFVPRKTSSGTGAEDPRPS
Sequence (P06213 763-1382 limits assumed): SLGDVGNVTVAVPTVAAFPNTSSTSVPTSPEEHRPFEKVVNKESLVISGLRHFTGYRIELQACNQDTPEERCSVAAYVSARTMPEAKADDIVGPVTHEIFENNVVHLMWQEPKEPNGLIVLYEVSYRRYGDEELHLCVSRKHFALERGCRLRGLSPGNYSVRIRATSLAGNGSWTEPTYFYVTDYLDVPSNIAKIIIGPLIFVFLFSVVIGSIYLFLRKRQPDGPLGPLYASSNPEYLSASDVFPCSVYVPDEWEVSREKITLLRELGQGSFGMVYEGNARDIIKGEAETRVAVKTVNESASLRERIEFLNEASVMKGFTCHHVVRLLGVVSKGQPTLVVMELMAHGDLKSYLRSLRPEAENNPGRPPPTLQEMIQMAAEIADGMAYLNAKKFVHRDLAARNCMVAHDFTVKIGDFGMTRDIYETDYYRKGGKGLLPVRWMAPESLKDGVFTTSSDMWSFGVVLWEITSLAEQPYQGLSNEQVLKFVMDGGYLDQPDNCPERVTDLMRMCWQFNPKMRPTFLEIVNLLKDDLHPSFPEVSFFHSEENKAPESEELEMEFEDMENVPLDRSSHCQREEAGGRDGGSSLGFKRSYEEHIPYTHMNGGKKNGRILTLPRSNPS
Details: at 10 µM
Answers are plain numbers, in %.

Cn1nc2c3c(cccc31)C(=O)c1ccccc1-2 : 74
CO[C@H]1C[C@@H]2CC[C@@H](C)[C@@](O)(O2)C(=O)C(=O)N2CCCC[C@H]2C(=O)O[C@H]([C@H](C)C[C@@H]2CC[C@@H](O)[C@H](OC)C2)CC(=O)[C@H](C)/C=C(\C)[C@@H](O)[C@@H](OC)C(=O)[C@H](C)C[C@H](C)/C=C/C=C/C=C/1C : 89
CC[n+]1c(/C=C/N(C)c2ccccc2)n(-c2ccccc2)c2ccc(-c3nc4ccccc4s3)cc21 : 86
NC(=O)c1ccc2[nH]c(-c3ccc(Oc4ccc(Cl)cc4)cc3)nc2c1 : 108
Nc1cccc(-c2cc3c(Oc4cccc(O)c4)ncnc3[nH]2)c1 : 46

Provide reported residual activity for each item, in the same order as listed.
1. Cc1ccc(NC2=CC(=O)c3sc(C)nc3C2=O)cc1
2. O=c1c2ccccc2[nH]c(=S)n1CCN1CCC(=C(c2ccc(F)cc2)c2ccc(F)cc2)CC1
3. CNc1cc2c(Nc3cccc(Br)c3)ncnc2cn1
4. O=C1Nc2ccccc2/C1=C1/Nc2ccccc2/C1=N\OCCC(O)CO (centres undefined)

Response line:
90
121
48
4

###

Target: Myotonin-protein kinase (Homo sapiens) (UniProt Q09013)
Sequence (Q09013 whole entry): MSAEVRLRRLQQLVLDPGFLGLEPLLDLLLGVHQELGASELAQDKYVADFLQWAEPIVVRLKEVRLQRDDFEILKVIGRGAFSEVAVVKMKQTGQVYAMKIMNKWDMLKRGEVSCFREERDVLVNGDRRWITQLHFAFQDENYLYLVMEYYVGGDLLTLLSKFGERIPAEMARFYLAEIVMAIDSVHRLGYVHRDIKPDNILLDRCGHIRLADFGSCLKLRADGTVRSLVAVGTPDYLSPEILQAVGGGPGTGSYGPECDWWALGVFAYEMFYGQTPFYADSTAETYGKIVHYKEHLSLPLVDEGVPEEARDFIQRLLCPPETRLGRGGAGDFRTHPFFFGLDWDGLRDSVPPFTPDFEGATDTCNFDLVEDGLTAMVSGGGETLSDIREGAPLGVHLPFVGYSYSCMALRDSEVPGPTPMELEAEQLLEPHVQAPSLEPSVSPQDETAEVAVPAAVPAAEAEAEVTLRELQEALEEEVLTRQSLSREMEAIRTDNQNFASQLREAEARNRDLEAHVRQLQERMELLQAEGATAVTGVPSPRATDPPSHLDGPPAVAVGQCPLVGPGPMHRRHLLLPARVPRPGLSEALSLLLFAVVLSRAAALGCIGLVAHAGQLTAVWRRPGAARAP
Conditions: at 1 µM
Provide the reported residual activity of each item.

Nc1nc(Nc2ccc(S(N)(=O)=O)cc2)nn1C(=S)Nc1c(F)cccc1F : 122%
COc1cccc(-c2cc(=O)c3ccccc3o2)c1N : 122%
O=C(Nc1cccc(Nc2cc(Nc3cccc(C(F)(F)F)c3)ncn2)c1)C1CC1 : 100%
O=Nc1c(-c2c(O)[nH]c3ccccc23)[nH]c2ccccc12 : 109%
COc1cc2ncnc(N3CCN(C(=O)Nc4ccc(Oc5ccccc5)cc4)CC3)c2cc1OC : 115%
Cc1cc(Nc2nc(-c3ccccc3)nc3ccccc23)n[nH]1 : 111%
Oc1ccc(-c2nc(-c3ccc(F)cc3)c(-c3ccncc3)[nH]2)cc1 : 112%
CCOc1cc2ncnc(Nc3cccc(Br)c3)c2cc1OCC : 109%
O=[N+]([O-])c1ccc(-c2nc(-c3ccc(F)cc3)c(-c3ccncc3)[nH]2)cc1 : 96%
CC(=O)c1ccc(N2CCOCC2)cc1O : 112%

# return residual activity for each item in the list
1. COc1ccc(OC)c2c(=S)c3ccccc3[nH]c12
2. c1ccc(-c2n[nH]cc2-c2ccnc3ccccc23)nc1
3. O=C1Nc2ccccc2/C1=C1/Nc2ccccc2/C1=N\OCCC(O)CO (stereo not given)

Response line:
1: 120%; 2: 127%; 3: 115%

Dear reader, for each entry below, please note its residual activity.
1. CCN(CC)CCCCN1c2ccccc2Oc2ccc(Cl)cc21
2. CN(C)c1ccc(/C=C2\C(=O)Nc3ccccc32)cc1
3. CN(C)CCCn1cc(C2=C(c3c[nH]c4ccccc34)C(=O)NC2=O)c2ccccc21
4. CC[n+]1c(/C=C/N(C)c2ccccc2)n(-c2ccccc2)c2ccc(-c3nc4ccccc4s3)cc21
5. N#Cc1cnc2cnc(NCc3cccnc3)cc2c1Nc1ccc(F)c(Cl)c1
6. COc1ccc(CNc2nc(N(CCO)CCO)nc3c2ncn3C(C)C)cc1
7. CO[C@H]1C[C@@H]2CC[C@@H](C)[C@@](O)(O2)C(=O)C(=O)N2CCCC[C@H]2C(=O)O[C@H]([C@H](C)C[C@@H]2CC[C@@H](O)[C@H](OC)C2)CC(=O)[C@H](C)/C=C(\C)[C@@H](O)[C@@H](OC)C(=O)[C@H](C)C[C@H](C)/C=C/C=C/C=C/1C

Response line:
120%
111%
31%
120%
100%
104%
145%
